Molecular target: T1, human TPBG antigen immobilized on a CM5 chip (human, UniProt Q13641 32-355, limits assumed)
T1 sequence (looked up): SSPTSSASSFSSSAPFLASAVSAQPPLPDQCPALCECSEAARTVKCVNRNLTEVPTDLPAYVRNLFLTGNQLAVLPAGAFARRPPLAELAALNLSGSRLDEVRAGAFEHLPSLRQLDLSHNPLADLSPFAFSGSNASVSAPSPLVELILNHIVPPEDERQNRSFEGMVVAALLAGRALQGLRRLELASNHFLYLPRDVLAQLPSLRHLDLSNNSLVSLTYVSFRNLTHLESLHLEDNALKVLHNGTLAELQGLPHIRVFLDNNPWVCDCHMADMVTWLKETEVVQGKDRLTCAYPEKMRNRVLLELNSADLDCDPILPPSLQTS
Test: SPR (Biacore), human TPBG antigen immobilized on CM5 chip
ENDPOINT NAME: Kd (nM)
Please state the figure in nM; there is no need to write the unit.

Below, 3 binders whose answers are already recorded.
Please fill in: Kd reported for Humanized antibody 12B12-12 (antibody, V domains shown, also called h12B12-12) VH: EVQLVESGGGLVQPGGSLRLSCAASGFTFSNFGMHWVRQAPGKGLEWVSYISSGSTSFYYADTVKGRFTISRDNAKNSLYLQMNSLRDEDTAVYYCARTNSLLRGFFDAWGQGTTVTVSS VL: DIVLTQTPLSLSVTPGQPASISCRASQSVSSSSYTYLHWYLQKPGQPPQLLIKSASNLESGVPDRFSGSGSGTDFTLKISRVEAEDVGVYYCQHSWEIPLTFGQGTKLEIK = 0.0186

GET /value?item= Humanized antibody 12B12-4 (antibody, V domains shown, also called h12B12-4) VH: EVQLVESGGGLVQPGGSLRLSCAASGFTFSNFGMHWVRQAPGKGLEWVSYISSGSTSFYYADTVKGRFTISRDNAKNSLYLQMNSLRDEDTAVYYCARTNSLLRGFFDAWGQGTTVTVSS VL: DIVLTQSPDSLAVSLGERATINCRASQSVSSSSYTYLHWYQQKPGQPPKLLIKSASNLESGVPDRFSGSGSGTDFTLTISSLQAEDVAVYYCQHSWEIPLTFGQGTKLEIK &field=Kd returns 0.022

Record Humanized antibody 12B12-5 (antibody, V domains shown, also called h12B12-5) VH: EVQLVESGGGLVQPGGSLRLSCAASGFTFSNFGMHWVRQAPGKGLEWVSYISSGSTSFYYADTVKGRFTISRDNAKNSLYLQMNSLRDEDTAVYYCSRTNSLLRGFFDAWGQGTTVTVSS VL: DIVLTQSPDSLAVSLGERATINCRASQSVSSSSYTYLHWYQQKPGQPPKLLIKSASNLESGVPDRFSGSGSGTDFTLTISSLQAEDVAVYYCQHSWEIPLTFGQGTKLEIK . Reported Kd: 0.0179

Others:
The recorded Kd for entry Humanized antibody 28D4-8 (antibody, V domains shown, also called h28D4-8) VH: EVQLVESGGGLVKPGGSLRLSCAASGFTFSNYVMSWARQAPGKRLEWVAEISTGGSHTYYSDTVTGRFTISRDNAKKSLYLQMNSLRAEDTAVYYCIMFYYGSSYSMDYWGQGTTVTVSS VL: DIQMTQSPSSLSASVGDRVTITCRASQDIRNYLNWYQQKPGKAPKLLIYHTSRLHSGVPSRFSGSGSGTDYTFTISSLQPEDIATYYCQQGDTLPLTFGQGTRLEIK equals 0.0296

Memo: Humanized antibody 28D4-12 (antibody, V domains shown, also called h28D4-12) VH: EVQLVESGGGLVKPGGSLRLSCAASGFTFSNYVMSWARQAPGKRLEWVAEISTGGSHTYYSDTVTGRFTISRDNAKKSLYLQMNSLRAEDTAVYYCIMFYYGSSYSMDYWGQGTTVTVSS VL: DIQMTQSPSSLSASVGDRVTITCRASQDIRNYLNWYQQKPGKTVKLLIYHTSRLHSGVPSRFSGSGSGTDYTFTISSLQPEDIATYFCQQGDTLPLTFGQGTRLEIK , reported Kd: 0.0381
